These data points were gathered from patent US8293774B2.

system: ECHOG (Echinoch crus-galli Beauv. var. caudata Kitagawa, barnyard grass); assay: Weed control test, foliage treatment (Test Example 1, Table 7); format: in vivo; conditions: Echinochloa crus-galli, foliar, 3-leaf stage, 0.2 kg/ha, read-out: Plant damage (herbicidal activity), visually evaluated, ECHOG
Field: pest or weed control at 200 g/ha. Provide a value for each of the molecules that follow.
One number for each entry, in %.

In [3]: df
Out[3]:
                                   molecule                     readout_label  quantitative_readout
0  C[C@@H](Oc1ccc(Oc2ccc(C#N)cc2F)cc1)C(=O)Nc1nc2ccccc2s1 [Example 19]  pest or weed control at 200 g/ha                    30
1  Cc1ccc(C=C(F)Oc2ccc(O[C@H](C)C(=O)Nc3ccccc3F)cc2)cc1 [Example 41]  pest or weed control at 200 g/ha                    20
2  C[C@@H](Oc1ccc(Oc2ccc(C#N)cc2F)cc1)C(=O)Nc1cnccn1 [Example 35]  pest or weed control at 200 g/ha                    30

Please examine the following record next.
Sample COc1ccc2nc(N(C)C(=O)[C@@H](C)Oc3ccc(Oc4nc5ccc(Cl)cc5o4)cc3)sc2c1 [Example 14] , system: ECHOG (Echinoch crus-galli Beauv. var. caudata Kitagawa, barnyard grass). Its pest or weed control at 200 g/ha is 70

====

test system: ZEAMX (Zea mays L., corn); assay: Weed control test, foliage treatment (Test Example 1, Table 7); assay type: in vivo; details: Zea mays, foliar, 0.025 kg/ha, read-out: Plant damage (herbicidal activity), visually evaluated, ZEAMX
Field: plant injury at 25 g/ha. Provide a value for each of the compounds that follow.
One number for each entry, in %.

Guide cases for plant injury at 25 g/ha, answers given:
In [3]: df
Out[3]:
                                   compound               assay_target  reading_unit  quantitative_readout
0  Cc1ccc(C=C(F)Oc2ccc(O[C@H](C)C(=O)Nc3ccccc3F)cc2)cc1 [Example 41]  ZEAMX (Zea mays L., corn)             %                     0
1  C[C@@H](Oc1ccc(Oc2ccc(C#N)cc2F)cc1)C(=O)Nc1cnccn1 [Example 35]  ZEAMX (Zea mays L., corn)             %                     0
2  C[C@@H](Oc1ccc(C(F)=C(c2ccc(F)cc2)C(F)(F)F)cc1)C(=O)Nc1ccccc1F [Example 40]  ZEAMX (Zea mays L., corn)             %                    90
3  C[C@@H](Oc1ccc(OC(F)=Cc2ccc(F)cc2)cc1)C(=O)Nc1nc2cc(Cl)ccc2o1 [Example 52]  ZEAMX (Zea mays L., corn)             %                    10
4  C[C@@H](Oc1ccc(C(F)=C(c2ccccc2)C(F)(F)F)cc1)C(=O)Nc1ccccc1F [Example 42]  ZEAMX (Zea mays L., corn)             %                     0
5  C[C@@H](Oc1ccc(OC(F)=Cc2ccccc2)cc1)C(=O)N(C)c1ccccc1F [Example 37]  ZEAMX (Zea mays L., corn)             %                     0
6  C[C@@H](Oc1ccc(Oc2ccc(C#N)cc2F)cc1)C(=O)Nc1nc2ccccc2s1 [Example 19]  ZEAMX (Zea mays L., corn)             %                     0
7  C[C@@H](Oc1ccc(Oc2ccc(C#N)cc2F)cc1)C(=O)Nc1nccs1 [Example 31]  ZEAMX (Zea mays L., corn)             %                    20
8  COc1ccc2nc(NC(=O)[C@@H](C)Oc3ccc(Oc4nc5ccc(Cl)cc5o4)cc3)sc2c1 [Example 13]  ZEAMX (Zea mays L., corn)             %                    40
9  Cc1ccc2nc(N(C)C(=O)[C@@H](C)Oc3ccc(Oc4ccc(C#N)cc4F)cc3)sc2c1 [Example 26]  ZEAMX (Zea mays L., corn)             %                    10

Quick batch: plant injury at 25 g/ha for everything below.
1. COc1ccc2nc(NC(=O)[C@@H](C)Oc3ccc(Oc4ccc(C#N)cc4F)cc3)sc2c1 [Example 27]
2. C[C@@H](Oc1ccc(Oc2ccc(C#N)cc2F)cc1)C(=O)Nc1nc2ccc(F)cc2s1 [Example 23]
3. COc1ccc2nc(N(C)C(=O)[C@@H](C)Oc3ccc(Oc4nc5ccc(Cl)cc5o4)cc3)sc2c1 [Example 14]
4. C[C@@H](Oc1ccc(Oc2nc3ccc(Cl)cc3o2)cc1)C(=O)Nc1nc2ccccc2s1 [Example 5]

1: 10; 2: 10; 3: 0; 4: 60

Quick batch: plant injury at 25 g/ha for everything below.
1. C[C@@H](Oc1ccc(Oc2nc3ccc(Cl)cc3o2)cc1)C(=O)N(C)c1nc2ccccc2s1 [Example 6]
2. C[C@@H](Oc1ccc(Oc2nc3ccc(Cl)cc3o2)cc1)C(=O)Nc1nc2cc(Cl)ccc2o1 [Example 1]

0
30

====

Field: pest or weed control at 200 g/ha. Provide a value for each of the molecules that follow.
tested on: SORBI (Andropogon sorghum, common sorgum); experiment: Weed control test, foliage treatment (Test Example 1, Table 7); assay type: in vivo; conditions: Sorghum bicolor, foliar, 0.2 kg/ha, read-out: Plant damage (herbicidal activity), visually evaluated, SORBI
Answers are plain numbers, in %.

Guide cases for pest or weed control at 200 g/ha, answers given:
>>> df
                                   molecule                              assay_target  quantitative_readout
0  COc1ccc2nc(NC(=O)[C@@H](C)Oc3ccc(Oc4ccc(C#N)cc4F)cc3)sc2c1 [Example 27]  SORBI (Andropogon sorghum, common sorgum)                    20
1  COc1ccc2nc(N(C)C(=O)[C@@H](C)Oc3ccc(Oc4nc5ccc(Cl)cc5o4)cc3)sc2c1 [Example 14]  SORBI (Andropogon sorghum, common sorgum)                    90
2  C[C@@H](Oc1ccc(OC(F)=Cc2ccc(Cl)cc2)cc1)C(=O)Nc1nc2cc(Cl)ccc2o1 [Example 56]  SORBI (Andropogon sorghum, common sorgum)                    20
3  C[C@@H](Oc1ccc(Oc2ccc(C#N)cc2F)cc1)C(=O)Nc1nc2ccc(Cl)cc2s1 [Example 21]  SORBI (Andropogon sorghum, common sorgum)                    50
4  C[C@@H](Oc1ccc(Oc2ccc(C#N)cc2F)cc1)C(=O)Nc1nc2ccccc2s1 [Example 19]  SORBI (Andropogon sorghum, common sorgum)                    70
5  C[C@@H](Oc1ccc(Oc2nc3ccc(Cl)cc3o2)cc1)C(=O)N(C)c1nc2ccccc2s1 [Example 6]  SORBI (Andropogon sorghum, common sorgum)                    90
6  C[C@@H](Oc1ccc(Oc2ccc(C#N)cc2F)cc1)C(=O)Nc1nc2ccc(F)cc2s1 [Example 23]  SORBI (Andropogon sorghum, common sorgum)                    20
7  C[C@@H](Oc1ccc(OC(F)=Cc2ccc(F)cc2)cc1)C(=O)Nc1nc2cc(Cl)ccc2o1 [Example 52]  SORBI (Andropogon sorghum, common sorgum)                     0

Quick batch: pest or weed control at 200 g/ha for everything below.
1. C[C@@H](Oc1ccc(C(F)=C(c2ccccc2)C(F)(F)F)cc1)C(=O)Nc1nc2cc(Cl)ccc2o1 [Example 55]
2. C[C@@H](Oc1ccc(Oc2ccc(C#N)cc2F)cc1)C(=O)Nc1nccs1 [Example 31]
3. C[C@@H](Oc1ccc(Oc2ccc(C#N)cc2F)cc1)C(=O)Nc1cnccn1 [Example 35]
4. Cc1ccc(C=C(F)Oc2ccc(O[C@H](C)C(=O)Nc3ccccc3F)cc2)cc1 [Example 41]
5. C[C@@H](Oc1ccc(Oc2nc3ccc(Cl)cc3o2)cc1)C(=O)Nc1nc2ccccc2s1 [Example 5]

[35, 50, 80, 0, 100]

====

Field: pest or weed control at 25 g/ha. Provide a value for each of the compounds that follow.
tested on: ECHOG (Echinoch crus-galli Beauv. var. caudata Kitagawa, barnyard grass); test: Weed control test, foliage treatment (Test Example 1, Table 7); assay type: in vivo; conditions: Echinochloa crus-galli, foliar, 3-leaf stage, 0.025 kg/ha, read-out: Plant damage (herbicidal activity), visually evaluated, ECHOG
Give bare numbers, in %.

Guide cases for pest or weed control at 25 g/ha, answers given:
In [3]: df
Out[3]:
                            molecule_smiles                    readout_label  reading_unit  quantitative_readout
0  C[C@@H](Oc1ccc(Oc2ccc(C#N)cc2F)cc1)C(=O)Nc1nc2ccccc2s1  pest or weed control at 25 g/ha             %                     0
1  C[C@@H](Oc1ccc(OC(F)=Cc2ccccc2)cc1)C(=O)N(C)c1ccccc1F  pest or weed control at 25 g/ha             %                    20

Quick batch: pest or weed control at 25 g/ha for everything below.
1. C[C@@H](Oc1ccc(OC(F)=Cc2ccc(F)cc2)cc1)C(=O)Nc1nc2cc(Cl)ccc2o1
2. C[C@@H](Oc1ccc(C(F)=C(c2ccc(F)cc2)C(F)(F)F)cc1)C(=O)Nc1ccccc1F
3. C[C@@H](Oc1ccc(Oc2nc3ccc(Cl)cc3o2)cc1)C(=O)Nc1nc2cc(Cl)ccc2o1
4. C[C@@H](Oc1ccc(C(F)=C(c2ccccc2)C(F)(F)F)cc1)C(=O)Nc1nc2cc(Cl)ccc2o1
5. C[C@@H](Oc1ccc(Oc2ccc(C#N)cc2F)cc1)C(=O)Nc1nc2ccc(Cl)cc2s1

1. 0
2. 20
3. 95
4. 0
5. 20
